test system: 786-O-Hif-Luc cells; test: Luciferase Assay; format: cell-based; settings: 24 h, 786-O-Hif-Luc cells; about 24 hours; read-out: Luciferase EC50
experimental_readout: EC50 (nM)
Give the value in nM but do not write nM after it.

### Prompt What does the record list as EC50 for CS(=O)(=O)c1ccc(Oc2cc(F)cc(C#N)c2)c2c1C(=O)C(F)(Cl)C2 (centres unmarked) ?
### Response 19400

### Prompt Would you mind telling me what EC50 value was observed for O=S1(=O)CC(O)c2c1ccc(Oc1cc(F)cc(F)c1)c2C(F)F (centres unmarked) ?
### Response 718

### Prompt For the compound shown here, CS(=O)(=O)c1ccc(Oc2cc(F)cc(C#N)c2)c2c1[C@H](O)C[C@@H]2F , give the reported EC50.
### Response 390

### Prompt I have this compound here, N#Cc1c(Oc2cc(F)cc(Cl)c2)ccc2c1[C@@H](O)CS2(=O)=O , and I need its recorded EC50.
### Response 226

### Prompt Consider the compound N#Cc1cncc(Oc2ccc(S(=O)(=O)C(F)(F)F)c3c2C[C@@H](F)[C@H]3O)c1 and give its measured EC50.
### Response 25

### Prompt # get_value(readout='EC50', item= O=S(=O)(CF)c1ccc(Oc2cccc3sccc23)c2c1C(O)C(F)(F)C2 (centres unmarked) )
### Response 512

### Prompt Look up EC50 for this compound: N#Cc1cc(F)cc(Oc2ccc3c(c2C(F)F)C(O)CS3(=O)=O)c1 (centres unmarked)
### Response 1430

### Prompt Entry N#Cc1cc(F)cc(Oc2ccc(S(=O)(=O)C(F)(F)F)c3c2CC(F)C3N)c1 (single isomer, unassigned) [Compound 29] has what EC50?
### Response 897

* * *

system: 786-O-Hif-Luc cells; test: Luciferase Assay; format: cell-based; conditions: 24 h, 786-O-Hif-Luc cells; about 24 hours; read-out: Luciferase EC50
experimental_readout: pEC50
FYI, pEC50 means -log10 of a concentration in mol per litre.

### Prompt What does the data say about its pEC50? Entry: N#CN=S1(=O)c2ccc(Oc3cc(F)cc(F)c3)c(C(F)F)c2C(O)C1(F)F (centres unmarked) [Compound 161]
### Response 5.82

### Prompt If you can, please state the reported pEC50 value of N#Cc1cncc(Oc2ccc(S(N)(=O)=O)c3c2[C@@H](F)C(F)(F)[C@H]3O)c1 [Compound 104] .
### Response 6.90

### Prompt Dear colleague, I am looking for the recorded pEC50 of the following compound: CS(=O)(=O)c1ccc(Oc2cncc(F)c2)c2c1[C@H](O)C(F)(F)[C@@H]2F [Compound 93]
### Response 7.47

### Prompt Suppose we examine the compound N#Cc1cccc(Oc2ccc3c(c2Br)[C@@H](O)C(F)(F)S3(=O)=O)c1 [Compound 194] ; what pEC50 value has been reported?
### Response 7.49

### Prompt Item under review: N#CN=S1(=O)CC(O)c2c1ccc(Oc1cc(F)cc(F)c1)c2C(F)F (centres unmarked) [Compound 158] . Reported pEC50?
### Response 5.73

### Prompt Need pEC50 of O=S1(=O)c2ccc(Oc3cncc(Cl)c3)c(Cl)c2[C@@H](O)C1(F)F [Compound 196] , thanks.
### Response 6.37

### Prompt Fill in: pEC50 of N=S1(=O)c2ccc(Oc3cc(F)cc(F)c3)c(Br)c2C(O)C1(F)F (single isomer, unassigned) [Compound 141] is ___
### Response 6.26

### Prompt What does the data say about its pEC50? Entry: CS(=O)(=O)c1ccc(Oc2cncc(C#N)c2)c2c1[C@H](O)C(F)(F)C2 [Compound 89]
### Response 6.31

* * *

Consider the following compounds; for each one, report its IC50.
Molecular target: HIF-2α HIS TAG-PASB Domain (Homo sapiens, UniProt Q99814)
Construct: 100 nM HIF-2α HIS TAG-PASB Domain
Sequence (Q99814 240-350 limits assumed): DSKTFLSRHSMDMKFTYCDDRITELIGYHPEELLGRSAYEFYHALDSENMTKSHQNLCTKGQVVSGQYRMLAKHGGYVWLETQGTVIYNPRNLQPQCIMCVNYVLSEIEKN
Assay: HIF-2α Scintillation Proximity Assay (SPA)
Assay type: binding
Settings: 150 nM Compound 211 probe, 100 nM HIF-2α HIS TAG-PASB Domain; read-out: SPA IC50
Procedure: The total assay volume was about 100 μL in the following configuration: 2 μL compound in 100% DMSO, 88 μL buffer with protein and probe and 10 μL of SPA beads. […] The percent inhibition was determined and IC50 values were calculated using the Dotmatics system based on the following equation: % inhibition=[(high control−sample)/(high control−low control)]×100.
Supply the numeric figure in nM, leaving out any unit text.

### Prompt Name the recorded IC50 for O=S1(=O)c2ccc(OCc3ccccc3)c(C(F)F)c2C(O)C1(F)F (stereo not drawn) [Compound 175] .
### Response 565

### Prompt Report IC50 for CS(=O)(=O)N=S(=O)(CF)c1ccc(Oc2cc(F)cc(C#N)c2)c2c1[C@H](O)C(F)(F)C2 (stereo partly drawn) [Compound 48] please.
### Response 5600

### Prompt What measured IC50 goes with CS(=O)(=O)c1ccc(Oc2cc(F)cc(C#N)c2)c2c1[C@H](O)C(F)(Cl)C2 (stereo partly drawn) [Compound 34] ?
### Response 97

### Prompt Requested field: IC50. Item: O=C1c2c(ccc(Oc3cc(F)cc(Cl)c3)c2Br)S(=O)(=O)C1(F)F [Compound 118]
### Response 1400

### Prompt Which value of IC50 has been reported for CS(=O)(=O)c1ccc(Oc2cncc(C#N)c2)c2c1[C@H](O)[C@H](F)[C@@H]2F [Compound 97] in the records?
### Response 74

### Prompt So what's the measured IC50 for this one? N#Cc1cncc(Oc2ccc(S(=O)(=O)CF)c3c2[C@H](F)C(F)(F)[C@H]3O)c1 [Compound 109]
### Response 2200

### Prompt # input compound: N#Cc1cc(F)cc(Oc2ccc(S(=O)(=O)C(F)(F)F)c3c2CC(F)C3N)c1 (single isomer, unassigned) [Compound 29] ; wanted: its IC50
### Response 90

### Prompt Which IC50 value belongs to N#Cc1cc(F)cc(Oc2ccc(S(=N)(=O)CF)c3c2CC(F)(F)[C@H]3O)c1 (single isomer, unassigned) [Compound 39] ?
### Response 76

### Prompt // lookup IC50 for CS(=O)(=O)c1ccc(Oc2cc(F)cc(C#N)c2)c2c1[C@H](O)CC2(F)F [Compound 52]
### Response 6500

### Prompt # get_value(readout='IC50', item= O=S1(=O)c2ccc(Oc3cncc(Cl)c3)c(Cl)c2[C@@H](O)C1(F)F [Compound 196] )
### Response 384

### Prompt Which IC50 value is on record for N#Cc1cc(F)cc(Oc2ccc3c(c2C#N)[C@@H](O)CS3(=O)=O)c1 [Compound 180] ?
### Response 12900

### Prompt Look up IC50: C=CCN=S(=O)(c1ccc(Oc2cc(F)cc(C#N)c2)c2c1[C@H](O)C(F)(F)C2)C(F)(F)F (single isomer, unassigned) [Compound 72]
### Response 68

### Prompt Please report the recorded IC50 for O=S(=O)(CF)c1ccc(Oc2cccc3sccc23)c2c1C(O)C(F)(F)C2 (stereo not drawn) [Compound 22] .
### Response 230

### Prompt Which IC50 is reported for this compound? N#Cc1cccc(Oc2ccc3c(c2C(F)F)[C@@H](O)C(F)(F)S3(=O)=O)c1 [Compound 199]
### Response 34

### Prompt Look up IC50 for this compound: CS(=O)(=O)c1ccc(Oc2cncc(C#N)c2)c2c1[C@H](O)C(F)(F)[C@H]2F [Compound 107]
### Response 23900

### Prompt Value lookup for IC50; key = N#CN=S1(=O)c2ccc(Oc3cc(F)cc(F)c3)c(Cl)c2[C@@H](O)C1(F)F (stereo partly drawn) [Compound 176]
### Response 174

### Prompt # input compound: N#CN=S(=O)(CF)c1ccc(Oc2cc(F)cc(C#N)c2)c2c1[C@H](O)[C@H](F)C2 (single isomer, unassigned) [Compound 40] ; wanted: its IC50
### Response 58

### Prompt Which IC50 is reported for this compound? N#Cc1cc(F)cc(Oc2ccc3c(c2C(F)F)[C@@H](N)C(F)(F)S3(=O)=O)c1 [Compound 151]
### Response 69

### Prompt Given the compound N#Cc1c(Oc2cc(F)cc(Cl)c2)ccc2c1CCS2(=O)=O [Compound 115] , what is its reported IC50?
### Response 4900

### Prompt Bench note: what IC50 did CS(=O)(=NC#N)c1ccc(Oc2cc(F)cc(C#N)c2)c2c1[C@@H](O)C(F)(F)[C@@H]2F (single isomer, unassigned) [Compound 84] show?
### Response 1570

### Prompt # get_value(readout='IC50', item= N#CN=S(=O)(CF)c1ccc(Oc2cc(F)cc(C#N)c2)c2c1[C@H](O)C(F)(F)C2 (single isomer, unassigned) [Compound 50] )
### Response 24

### Prompt What value of IC50 has been reported for the following compound? CS(=O)(=O)c1ccc(Oc2cncc(Br)c2)c2c1[C@H](O)[C@H](F)[C@@H]2F [Compound 92]
### Response 32

### Prompt Quick one: IC50 for O=S1(=O)c2ccc(Oc3cncc(Cl)c3)c(Br)c2[C@@H](O)C1(F)F [Compound 185] ?
### Response 124

### Prompt For the compound shown here, O=S1(=O)CC(O)c2c1ccc(Oc1cc(F)cc(Cl)c1)c2C(F)F (stereo not drawn) [Compound 125] , give the reported IC50.
### Response 100

### Prompt Recorded IC50 of N#CN=S(=O)(CF)c1ccc(Oc2cc(F)cc(C#N)c2)c2c1[C@H](O)CC2 (single isomer, unassigned) [Compound 46] , please.
### Response 7200

### Prompt Bench note: what IC50 did CS(=O)(=O)c1ccc(Oc2cncc(Br)c2)c2c1[C@H](O)C(F)(F)C2 [Compound 88] show?
### Response 54

### Prompt Which IC50 value is on record for N=S1(=O)c2ccc(Oc3cc(F)cc(F)c3)c(Br)c2C(O)C1(F)F (single isomer, unassigned) [Compound 142] ?
### Response 239
